- tgt: Protein kinase C gamma type (Homo sapiens) (UniProt P05129)
- cond: at 0.1 µM;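 further: values are mean percent inhibition of PKC gamma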
measured-attribute: inhibition

INSERT INTO assay_data (compound, endpoint_result) VALUES
  ('NC(=O)c1cccc(Nc2nccc(Nc3cccc4[nH]ncc34)n2)c1', '0.25%'),
  ('COc1ccc(-c2ccncc2)cc1C(N)=O', '2.34%'),
  ('Cc1cc(O)cc(C)c1/C=C/c1cncc(-c2nn[nH]n2)c1', '-3.08%'),
  ('CCn1c(-c2nonc2N)nc2c(C#CC(C)(C)O)nc(CN3CCCC3)cc21', '3.19%'),
  ('Cc1nnc(-c2ccc(C)c(-c3ccc(C(=O)Nc4cccc(C#N)c4)cc3)c2)o1', '1.49%'),
  ('O=C1NC(=O)C(c2ccc(Cl)cc2)=C1Nc1ccc(Cl)c(C(=O)O)c1', '0.52%'),
  ('COc1ccc(COc2ccc(Cc3cnc(N)nc3N)cc2OC)cc1', '2.11%'),
  ('CCCN1CCC=C(c2ccc(Nc3nc(Nc4ccccc4C(N)=O)c4cc[nH]c4n3)c(C)c2)C1', '3.41%'),
  ('CCn1c(-c2nonc2N)nc2c(N3CCCC3)nccc21', '-1.48%'),
  ('Nc1nc(-c2ccccn2)c(-c2ccc3ncccc3n2)s1', '1.52%'),
  ('CC1=C(C(=O)Nc2ccc3[nH]ncc3c2)C(c2ccc(Cl)c(Cl)c2)CC(=O)N1 (stereo unspecified)', '1.51%');
